# Test system: C. albicans CaCi-8 + fluconazole, Alamar Blue growth, 48 h
# experimentalProtocol: growth inhibition of resistant C. albicans CaCi-8, dose response, with fluconazole, powder samples, set 10 (AID 504504)
Inconclusive results are not listed. Calls of active or inactive are those of the source.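 The calls were made as follows: active = growth-lowering compounds whose fitted AC50 is at most ten times their top valid dose; inconclusive = flat fit with 30 to 70% inhibition, or unreliable fit; inactive = the rest.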
Respond only with the outcome that fits, drawn from t = active, f = inactive

Consider the worked cases shown below.
INSERT INTO measurements (itemsmiles, target, assignedcategory) VALUES
  ('O=C(Cn1c2ccccc2c2nc3n(c(=O)c21)CCS3)N1CCC(F)(F)C1', 'C. albicans CaCi-8 + fluconazole, Alamar Blue growth, 48 h', 't'),
  ('c1ccc(-c2nn(Cc3nnco3)c3ccccc23)cc1', 'C. albicans CaCi-8 + fluconazole, Alamar Blue growth, 48 h', 't');

Outcome? O=C(Cn1c2ccccc2c2nc3n(c(=O)c21)CCS3)N1CC=CC1
t

Just curious, what result did COC(=O)Cn1nc(-c2cscn2)c2ccccc21 get here?
t

Short answer needed: outcome of this test for COC(=O)Cn1c2ccc(F)cc2c2nc3n(c(=O)c21)CCS3 ?
t

Tell me the assay call for COC(=O)Cn1nc(-c2cccc(F)c2)c2ccccc21 please.
t

# outcome recorded in this test, key = COC(=O)Cn1nc(-c2cccc(C)c2)c2ccccc21
t

Outcome logged for CC1(O)CN(C(=O)Cn2c3ccccc3c3nc4n(c(=O)c32)CCS4)C1 in this assay:
f

###

# Test system: C. albicans CaCi-8 + fluconazole, Alamar Blue growth, 48 h
# experimentalProtocol: growth inhibition of resistant C. albicans CaCi-8, dose response, with fluconazole, powder samples, set 10 (AID 504504)
Results filed as inconclusive are left out.
Overview of reported AC50 across a group of compounds:

INSERT INTO results (itemsmiles, val) VALUES
  ('O=C(Cn1c2ccccc2c2nc3n(c(=O)c21)CCS3)N1CCCC1', '1970 nM'),
  ('COC(=O)Cn1nc(-c2cccc(OC)c2)c2ccccc21', '607 nM');

Identify the reported AC50 for the following entry. COC(=O)Cn1nc(C2CCCCC2)c2ccccc21
3440 nM

State its AC50: O=C(Cn1c2ccccc2c2nc3n(c(=O)c21)CCS3)N1CCCCC1
2170 nM
